Every entry's value here was drawn from PubChem BioAssay (NCI).

- Tested on: MDA-MB-435 melanoma
- EXPERIMENTAL_PROTOCOL: NCI-60 one-dose screen, 48 h
- ASSAY_CONDITIONS: 10 µM unless noted
The panel holds about 83,000 compounds, 20% with a hit somewhere; the sample as a whole holds those more often. Calls of active or inactive are those of the source. How the source made its calls: active means growth percent below 10; inactive means the rest.
Lab note: assign the record to one of active, inactive

>>> assigned_category("CCOC(=O)c1ccc2[nH]c(-c3ccccc3)cc(=O)c2c1")
"inactive"

Hi, do you know how Cn1c2c(c(=O)[nH]c1=O)NC1=C(C(=O)c3ccccc31)C1(C=C(O)c3ccccc31)N2 (stereo not given) came out in this test?
inactive

Hi, do you know how `CC(C)Cn1c2c(c(=S)[nH]c1=O)CCC2` came out in this test?
inactive

Hi, do you know how `CCOC(=O)c1cc2c(n1Cc1cccc(OC)c1)-c1oncc1CCC2` came out in this test?
active

Hi, do you know how `COc1cc(/C=C2\CN(C)C/C(=C\c3cc(CN4CCOCC4)c(O)c(OC)c3)C2=O)cc(CN2CCOCC2)c1O` came out in this test?
inactive

Hi, do you know how O=C(CN1C=NC2C(N3CCOCC3)=NC=NC21)c1cccc2ccccc12 (stereo not given) came out in this test?
inactive

Hi, do you know how O=C(Nc1ncc(Cc2cccc(C(F)(F)F)c2)s1)C1COc2ccccc2O1 (stereo not given) came out in this test?
inactive

Hi, do you know how `COC(=O)/C(CCC=C(C)C)=C1\[C@@H](OC(C)=O)C[C@@]2(C)[C@H]1C[C@@H](O)[C@H]1[C@@]3(C)CC[C@H](NCc4ccccc4)[C@@H](C)[C@@H]3CC[C@@]12C` came out in this test?
inactive

Hi, do you know how `CNCCNc1nc2ccccc2c2c(=O)c3cccc(OC)c3sc12` came out in this test?
active

Hi, do you know how `CN1CCN(Cc2ccc(C(=O)Nc3cncc(C#Cc4cnc(N)c5ccccc45)c3)cc2C(F)(F)F)CC1` came out in this test?
active

Hi, do you know how `CCCC(=O)CC(C)=O.CCCC(=O)CC(C)=O.[Cu]` came out in this test?
inactive

Hi, do you know how `O=C(Nc1ccc(N2CCNCC2)cn1)c1[nH]ncc1Nc1ncnc2sccc12` came out in this test?
active

Hi, do you know how `Cc1c(C(=O)OCCO)cc(-c2ccc(Cl)cc2)n1-c1ccc(Cl)cc1Cl` came out in this test?
active

Hi, do you know how `COc1ccc(-c2cc(=O)c3c(OC)c4ccoc4c(/C=C/C=O)c3o2)cc1` came out in this test?
inactive

Hi, do you know how COc1cc(C2C(C#N)=C(N)OC3=C2C(=O)c2ccccc2C3=O)cc(OC)c1OC (stereo not given) came out in this test?
active

Hi, do you know how `O=C(Nc1ccc(I)cc1F)c1cc(Cl)ccc1O` came out in this test?
active

Hi, do you know how `COc1ccc2c(c1)C=C1CSCC3=Cc4cc(OC)ccc4OC13O2` came out in this test?
active

Hi, do you know how `O=C(Nc1ccc(I)cc1F)c1cc(Br)ccc1O` came out in this test?
active

Hi, do you know how `COc1ccc(CCN2CCC(CN(C)Cc3cnn(-c4ccccc4)c3)CC2)cc1` came out in this test?
inactive

Hi, do you know how COc1ccc(C2Nc3ncnc(N)c3N=C3c4ccccc4C(=O)C32)cc1 (stereo not given) came out in this test?
inactive
